- ASSAY_TARGET: NPC1-like intracellular cholesterol transporter 1 (Homo sapiens)
- ASSAY_OVERVIEW: Displacement of [35S](2S,3S,4S,5R,6S)-6-(4-((2S,3R)-3-((S)-3-(4-fluorophenyl)-3-hydroxypropyl)-1-(4-(3-(methylsulfonamido)prop-1-ynyl)phenyl)-4-oxoazetidin-2-yl)phenoxy)-3,4,5-trihydroxytetrahydro-2H-pyran-2-carboxylic acid from human NCP1L1 expressed in HEK 293
MEASUREMENT_KIND: IC50 (µM)

Some entries whose results are on file:
{"COMPOUND": "CC(C)(C)OC(=O)NCC1CCN(C(=O)CN2CN(c3ccccc3)C3(CCN(C(=O)c4ccc(C5CCCCC5)cc4)CC3)C2=O)CC1", "IC50 (µM)": 2.5}
{"COMPOUND": "CC(C)(C)OC(=O)NCC1CCCN(C(=O)CN2CN(c3ccccc3)C3(CCN(C(=O)c4ccc(C(C)(C)C)cc4)CC3)C2=O)C1 (configuration not stated)", "IC50 (µM)": 9.5}
{"COMPOUND": "CCOC(=O)C1CCN(C(=O)CN2CN(c3ccccc3)C3(CCN(C(=O)c4ccc(C(C)(C)C)cc4)CC3)C2=O)CC1", "IC50 (µM)": 3.1}
{"COMPOUND": "CC(C)(C)c1ccc(C(=O)N2CCC3(CC2)C(=O)N(CC(=O)N2CCN(S(=O)(=O)c4ccccc4)CC2)CN3c2ccccc2)cc1", "IC50 (µM)": 15}

I = CC(C)(C)OC(=O)N1CCN(C(=O)CN2CN(c3ccccc3)C3(CCN(C(=O)c4ccc(C(C)(C)C)cc4)CC3)C2=O)CC1
II = O=C(CN1CN(c2ccccc2)C2(CCN(C(=O)c3ccc(C4CCCCC4)cc3)CC2)C1=O)N1CCN(S(=O)(=O)c2ccccc2)CC1
Lab note: check whether I or II has the lower measured IC50. Give the label of your selection.
I

----------
- ASSAY_TARGET: NPC1-like intracellular cholesterol transporter 1 (Homo sapiens, UniProt Q9UHC9)
- Sequence (Q9UHC9 whole entry): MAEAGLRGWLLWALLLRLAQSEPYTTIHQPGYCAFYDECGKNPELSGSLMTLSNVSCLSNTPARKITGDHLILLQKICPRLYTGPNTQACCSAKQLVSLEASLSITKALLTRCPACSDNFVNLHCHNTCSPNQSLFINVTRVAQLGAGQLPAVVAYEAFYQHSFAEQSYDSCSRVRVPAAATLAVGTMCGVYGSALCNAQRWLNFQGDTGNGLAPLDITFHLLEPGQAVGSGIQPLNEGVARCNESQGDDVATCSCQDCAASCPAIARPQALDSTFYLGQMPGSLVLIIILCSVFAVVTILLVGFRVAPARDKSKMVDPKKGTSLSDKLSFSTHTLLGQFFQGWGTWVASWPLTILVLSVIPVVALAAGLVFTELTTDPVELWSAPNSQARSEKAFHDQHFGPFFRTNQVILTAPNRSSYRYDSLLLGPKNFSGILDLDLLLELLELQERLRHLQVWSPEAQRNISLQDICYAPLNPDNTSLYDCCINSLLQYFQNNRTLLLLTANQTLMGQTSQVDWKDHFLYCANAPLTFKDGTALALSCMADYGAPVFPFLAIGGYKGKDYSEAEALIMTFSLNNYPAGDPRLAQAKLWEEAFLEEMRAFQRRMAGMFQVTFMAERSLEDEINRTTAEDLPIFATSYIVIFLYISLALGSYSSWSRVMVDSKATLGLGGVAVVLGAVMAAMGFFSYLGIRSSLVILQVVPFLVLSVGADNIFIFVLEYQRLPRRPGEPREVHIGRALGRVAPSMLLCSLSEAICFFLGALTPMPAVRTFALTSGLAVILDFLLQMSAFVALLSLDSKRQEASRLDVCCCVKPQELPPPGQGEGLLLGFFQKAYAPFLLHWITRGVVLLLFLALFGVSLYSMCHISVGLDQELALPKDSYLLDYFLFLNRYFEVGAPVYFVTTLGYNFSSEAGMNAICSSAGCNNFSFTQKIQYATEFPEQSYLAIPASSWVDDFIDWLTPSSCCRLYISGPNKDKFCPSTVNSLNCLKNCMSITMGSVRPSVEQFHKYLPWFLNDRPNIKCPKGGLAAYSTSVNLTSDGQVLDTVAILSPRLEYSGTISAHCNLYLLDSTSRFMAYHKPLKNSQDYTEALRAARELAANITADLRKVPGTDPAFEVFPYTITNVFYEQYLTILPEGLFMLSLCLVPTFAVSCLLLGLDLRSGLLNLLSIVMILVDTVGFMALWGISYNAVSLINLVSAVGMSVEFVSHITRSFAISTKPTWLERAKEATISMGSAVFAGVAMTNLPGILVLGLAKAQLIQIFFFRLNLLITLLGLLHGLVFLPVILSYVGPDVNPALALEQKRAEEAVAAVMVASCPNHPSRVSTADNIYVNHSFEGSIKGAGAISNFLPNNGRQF
- ASSAY_OVERVIEW: Displacement of [35S](2S,3S,4S,5R,6S)-6-(4-((2S,3R)-3-((S)-3-(4-fluorophenyl)-3-hydroxypropyl)-1-(4-(3-(methylsulfonamido)prop-1-ynyl)phenyl)-4-oxoazetidin-2-yl)phenoxy)-3,4,5-trihydroxytetrahydro-2H-pyran-2-carboxylic acid from human NCP1L1 expressed in HEK 293
MEASUREMENT_KIND: IC50 (µM)

Some entries whose results are on file:
{"MOLECULE": "CCN(CC)C(=O)C1CCCN(C(=O)CN2CN(c3ccccc3)C3(CCN(C(=O)c4ccc(C5CCCCC5)cc4)CC3)C2=O)C1 (centres undefined)", "RESULT_UNIT": "µM", "READING": 3.3}
{"MOLECULE": "CC(C)(C)OC(=O)NCCCNC(=O)CN1CN(c2ccccc2)C2(CCN(C(=O)c3ccc(C4CCCCC4)cc3)CC2)C1=O", "RESULT_UNIT": "µM", "READING": 3.7}
{"MOLECULE": "O=C(CN1CN(c2ccccc2)C2(CCN(C(=O)c3ccc(C4CCCCC4)cc3)CC2)C1=O)N1CCC(CO)CC1", "RESULT_UNIT": "µM", "READING": 1.1}
{"MOLECULE": "CC(C)(C)c1ccc(C(=O)N2CCC3(CC2)C(=O)N(CC(=O)N2CCCC(C(N)=O)C2)CN3c2ccccc2)cc1 (centres undefined)", "RESULT_UNIT": "µM", "READING": 16.9}

I = CC(C)(C)OC(=O)NC1CCN(C(=O)CN2CN(c3ccccc3)C3(CCN(C(=O)c4ccc(C5CCCCC5)cc4)CC3)C2=O)CC1
II = CC(C)(C)c1ccc(C(=O)N2CCC3(CC2)C(=O)N(CC(=O)NCCCCO)CN3c2ccccc2)cc1
Which value of IC50 is numerically greater: that of I or that of II ? Give the label of your selection.
II
(II: 8.3 µM, I: 4.8 µM)

A = CC1CCCN(C(=O)CN2CN(c3ccccc3)C3(CCN(C(=O)c4ccc(C(C)(C)C)cc4)CC3)C2=O)C1 (centres undefined)
B = CS(=O)(=O)NCCCNC(=O)CN1CN(c2ccccc2)C2(CCN(C(=O)c3ccc(C4CCCCC4)cc3)CC2)C1=O
Lab note: check whether A or B has the lower measured IC50. Give the label of your selection.
B
(B: 2.5 µM, A: 12 µM)
